- Test system: SK-MEL-2 melanoma
- run description: NCI tumour cell line growth inhibition, 48 h
measurement name: TGI (µM)

>>> df
                                   molecule  measurement_name  measurement_units  inequality_sign  numeric_value
0    COc1cc(-c2nc3ccccc3o2)cc(CN2CCCCC2)c1O               TGI                 µM                =           15.8
1  N#CC1(C#N)C=CC(=C2OCC3CCCN23)C=C1 (stereo not given)               TGI                 µM                >            100
2  CCCCNC(=S)OCCC(C)CCCC(C)C (stereo not given)               TGI                 µM                >            100
3  O=[N+]([O-])c1cc(N=Nc2c(O)ccc3cc(S(=O)(=O)O)ccc23)c(O)c([N+](=O)[O-])c1               TGI                 µM                >            100
4  COc1cc2ncnc(Nc3ccc(Oc4ccnc(C)c4)c(C)c3)c2cc1NC(=O)CC1CCSS1 (stereo not given)               TGI                 µM                =           1.91
